- Study System: HLA-B*15:17
- Experimental Details: IEDB peptide-MHC binding, purified MHC/direct/fluorescence; filed as Kd, often an IC50 or EC50 that approximates it; bounds were set here for any values at or beyond the usual limits of such assays
- Assay Conditions: source organism: Mycobacterium tuberculosis
Recorded Metric: Kd

[[record]]
sequence = "RPAGARAAF"
recorded_metric = "Kd"
test_value = "≥ 20 µM"


---

- Study System: HLA-C*14:02
- Experimental Details: IEDB peptide-MHC binding, purified MHC/direct/fluorescence; filed as Kd, often an IC50 or EC50 that approximates it; bounds were set here for any values at or beyond the usual limits of such assays
- Assay Conditions: source organism: Human immunodeficiency virus 1
Recorded Metric: Kd

[[record]]
sequence = "AFHHVAREL"
recorded_metric = "Kd"
test_value = "≤ 1 nM"

